- Tested on: Fibroblast
- assay.comment: Multiplex assay against human fibroblast
- Type: toxicity, cell-based
- condition.info: 48 h, 1 µM, compound concentration 1 uM, replicate 2
Hi, to clarify the labels: 1.0 covers Total Cell Count from 200 upward, 0.0 covers anything below 200.

Field: example entries. Status: answers known.
{"molecule": "O=C(Nc1ccc(-n2nc(-c3cccnc3)cc2C(F)(F)F)cn1)c1ccc(-c2ccccc2)c(F)c1", "group.label": 0.0}
{"molecule": "O=C(Nc1ccc(-c2ccnc(Nc3ccc(N4CCOCC4)cc3)n2)cc1)[C@@H]1CCCN1", "group.label": 0.0}
{"molecule": "C=C1/C(=C\\C=C2/CCC[C@]3(C)[C@@H]([C@H](C)/C=C/[C@H](C)C(C)C)CC[C@@H]23)C[C@@H](O)C[C@@H]1O", "group.label": 0.0}
{"molecule": "CN1C2CCC1CC(OC(c1ccc(F)cc1)c1ccc(F)cc1)C2.Cl (stereo not given)", "group.label": 0.0}

Could you now look at the following molecule, please?
# input Is Total Cell Count at least 200? Consider Cc1ccc(C(=O)Nc2cccc(C(F)(F)F)c2)cc1Nc1nc(-c2cccnc2)nc2c1cnn2C
# output 1.0

----------
- Test system: HEK-293T
- assay.comment: Multiplex assay against HEK293T
- Format: toxicity, cell-based
- condition.info: human, 24 h, 1 µM, compound concentration 1 uM, replicate 2
measured.metric: Population Hoechst High Intensity Objects (%)
One number for each entry, in %.

Example entries begin here.
{"smiles.repr": "Cl.O=C(c1ccc(Nc2nccc(-c3cc4ccccc4s3)n2)cc1)N1CCC(N2CCCC2)CC1", "measure.unit": "%", "assay.value": 3}
{"smiles.repr": "O=C(Nc1ccc(-c2ccnc(Nc3ccc(N4CCOCC4)cc3)n2)cc1)[C@@H]1CCCN1", "measure.unit": "%", "assay.value": 3}
{"smiles.repr": "NC(=O)c1cccc(-c2cc(Nc3ccc(OC(F)(F)F)cc3)ncn2)c1", "measure.unit": "%", "assay.value": 3}
{"smiles.repr": "O=C(Nc1ccc(Cl)cc1)Nc1cccc(-c2cccc(N3CCCC3)n2)c1", "measure.unit": "%", "assay.value": 3}
{"smiles.repr": "COC(=N)c1nc2ccc3ncnc(Nc4ccc(OC)cc4F)c3c2s1", "measure.unit": "%", "assay.value": 5}
{"smiles.repr": "O=C1N/C(=N/c2ccccc2F)S/C1=C\\c1ccc(C(=O)O)cc1", "measure.unit": "%", "assay.value": 5}

# molecule CCN1CCN(Cc2ccc(Nc3ncc(F)c(-c4cc(F)c5nc(C)n(C(C)C)c5c4)n3)nc2)CC1.CS(=O)(=O)O ; its Population Hoechst High Intensity Objects (%) = 5

----------
- Test system: Fibroblast
- assay.comment: Multiplex assay against human fibroblast
- Type: toxicity, cell-based
- condition.info: 12 h, 10 µM, compound concentration 10 uM, replicate 2
Task for the reader: assign each of the following molecules its reported Population Membrane Permeable-Phenotype (%).
Answers are plain numbers, in %.

Example entries begin here.
{"molecule": "COc1ccc(-c2ccc3c(N4CCOCC4)nc(N4C[C@@H](C)O[C@@H](C)C4)nc3n2)cc1CO", "assay.value": 42}
{"molecule": "O=C1N/C(=N/c2ccccc2F)S/C1=C\\c1ccc(C(=O)O)cc1", "assay.value": 1}
{"molecule": "C=CCn1c(=O)c2cnc(Nc3ccc(N4CCN(C)CC4)cc3)nc2n1-c1cccc(C(C)(C)O)n1", "assay.value": 17}
{"molecule": "NC(=O)c1cccc(-c2cc(Nc3ccc(OC(F)(F)F)cc3)ncn2)c1", "assay.value": 0}
{"molecule": "CCCS(=O)(=O)c1nc(NC2CC2)cc(-c2ccc3c(ccn3C3CC(C)(C)NC(C)(C)C3)c2)n1", "assay.value": 100}
{"molecule": "CCc1cccc(CC)c1NC(=O)c1nn(C)c2c1CCc1cnc(Nc3ccc(N4CCN(C)CC4)cc3OC)nc1-2", "assay.value": 3}
{"molecule": "CCOc1cc(C(=O)N2CCC(N3CCN(C)CC3)CC2)ccc1Nc1ncc2c(n1)N(C1CCCC1)c1ccccc1C(=O)N2C", "assay.value": 93}
{"molecule": "O=C(Nc1cccnn1)N1CCC(=Cc2cccc(Oc3ccc(C(F)(F)F)cn3)c2)CC1", "assay.value": 12}
{"molecule": "O=C(Cc1ccc(-c2ccc(OCCN3CCOCC3)cc2)cn1)NCc1ccccc1", "assay.value": 4}
{"molecule": "O=C(Nc1ccc(Cl)cc1)Nc1cccc(-c2cccc(N3CCCC3)n2)c1", "assay.value": 69}

Report Population Membrane Permeable-Phenotype (%) for each item below.
1. CCN1CCN(Cc2ccc(Nc3ncc(F)c(-c4cc(F)c5nc(C)n(C(C)C)c5c4)n3)nc2)CC1.CS(=O)(=O)O
2. COCC(=O)NC/C=C/c1ccc2ncnc(Nc3ccc(Oc4ccc(C)nc4)c(C)c3)c2c1
3. CCCn1c(=O)c2[nH]c(-c3cnn(Cc4cccc(C(F)(F)F)c4)c3)nc2n(CC)c1=O
4. CN1CCC(=C2c3ccccc3CC(=O)c3sccc32)CC1.O=C(O)/C=C/C(=O)O [KETOTIFEN FUMARATE]
5. O=C(Nc1ccc(-c2ccnc(Nc3ccc(N4CCOCC4)cc3)n2)cc1)[C@@H]1CCCN1

# output
1. 88
2. 37
3. 3
4. 15
5. 8

Report Population Membrane Permeable-Phenotype (%) for each item below.
1. CCN1CCN(c2ccc(Nc3cc(N(C)C(=O)Nc4c(Cl)c(OC)cc(OC)c4Cl)ncn3)cc2)CC1
2. Cc1cc(C)c(S(=O)(=O)N(Cc2ccc(-c3cccc(S(C)(=O)=O)c3)cc2)Cc2ccc(C(F)(F)F)o2)c(C)c1
3. COC(=N)c1nc2ccc3ncnc(Nc4ccc(OC)cc4F)c3c2s1

# output
1. 17
2. 3
3. 5

----------
Task for the reader: assign each of the following compounds its reported Population Fragmented Nuclei (%).
- Test system: HEK-293T
- assay.comment: Multiplex assay against HEK293T
- Format: toxicity, cell-based
- condition.info: human, 24 h, 1 µM, compound concentration 1 uM, replicate 2

Report Population Fragmented Nuclei (%) for each item below.
1. O=C(Cc1ccc(-c2ccc(OCCN3CCOCC3)cc2)cn1)NCc1ccccc1 [TIRBANIBULIN]
2. COc1cc2ncnc(Nc3ccc(F)c(Cl)c3)c2cc1NC(=O)/C=C/CN1CCCCC1 [DACOMITINIB ANHYDROUS]
3. CN1C2CCC1CC(OC(c1ccc(F)cc1)c1ccc(F)cc1)C2.Cl (stereo unspecified)
4. C=CCn1c(=O)c2cnc(Nc3ccc(N4CCN(C)CC4)cc3)nc2n1-c1cccc(C(C)(C)O)n1 [ADAVOSERTIB]
5. CN1CCC(=C2c3ccccc3CC(=O)c3sccc32)CC1.O=C(O)/C=C/C(=O)O [KETOTIFEN FUMARATE]
6. S=C(NCCCc1c[nH]cn1)NCCCN(Cc1ccc(Cl)c(Cl)c1)c1ccc(Br)cn1

# output
["6%", "16%", "4%", "7%", "3%", "4%"]

----------
- Test system: Fibroblast
- assay.comment: Incucyte cell viability with human fibroblast; also: filed as whole numbers so only -1 and 0 and 1 occur
- Assay type: toxicity, cell-based
- condition.info: 6 h, 10 µM, compound concentration 10 uM, replicate number 1, timepoint 6 hours
Task for the reader: assign each of the following molecules its reported Growth Rate.

{"molecule": "CC(C)(C)OC(=O)N1CCCC1CNC1CCC(c2cc(F)ccc2F)(S(=O)(=O)c2ccc(Cl)cc2)CC1 (stereo not given)", "Growth Rate": 0}
{"molecule": "CC(C)OC(=O)C1=CN(C(=O)c2ccc(F)c(F)c2)CC(C)(C)c2c1[nH]c1ccccc21 [TUROFEXORATE ISOPROPYL]", "Growth Rate": 0}
{"molecule": "O=C(Nc1ccc(-n2nc(-c3cccnc3)cc2C(F)(F)F)cn1)c1ccc(-c2ccccc2)c(F)c1", "Growth Rate": 0}
{"molecule": "CCOC(=O)c1c(C)[nH]c2ccc3c(c12)CN1CCc2cc(OC)ccc2C1O3 (stereo not given)", "Growth Rate": 0}
{"molecule": "Cn1nc(C(F)(F)F)cc1-c1cnc(N2CCc3cc(S(=O)(=O)Nc4c(F)cc(Cl)cc4F)cc(N4CCCC4=O)c32)nc1", "Growth Rate": 1}

Report Growth Rate for each item below.
1. C=CCn1c(=O)c2cnc(Nc3ccc(N4CCN(C)CC4)cc3)nc2n1-c1cccc(C(C)(C)O)n1
2. CC(=O)N1CCC(c2ccc(C(=O)NC(=N)N)cc2C(F)(F)F)CC1
3. COc1cc(OC)cc(-c2noc(N3CCN(C)C4(CCN(c5ccnc(C)c5)CC4)C3)n2)c1
4. NC(=O)c1cccc(-c2cc(Nc3ccc(OC(F)(F)F)cc3)ncn2)c1
5. O=C1NC(c2ccccn2)Sc2ccccc21 (stereo not given)

# output
[0, 1, 0, 0, 1]

Report Growth Rate for each item below.
1. CN1C2CCC1CC(OC(c1ccc(F)cc1)c1ccc(F)cc1)C2.Cl (stereo not given)
2. Cc1ccc(-c2cnc([C@@]3(O)CC[C@H](C(=O)O)C(C)(C)C3)s2)cc1Nc1cccc(C(F)(F)F)n1
3. COc1cc(-c2cn(C)c(=O)c3cnccc23)c(OC)cc1CN(C)C

# output
1. 1
2. 0
3. 0

Report Growth Rate for each item below.
1. Cc1ccc2nc(CNCCCOc3ccccc3)cc(O)c2c1
2. CCCS(=O)(=O)c1nc(NC2CC2)cc(-c2ccc3c(ccn3C3CC(C)(C)NC(C)(C)C3)c2)n1

# output
[0, 0]
